# MEASUREMENT_TARGET: norepinephrine transporter (Homo sapiens)
# Construct: expressed in transfected cells; host or cells: HEK-293
# Sequence (P23975 whole entry, species assumed): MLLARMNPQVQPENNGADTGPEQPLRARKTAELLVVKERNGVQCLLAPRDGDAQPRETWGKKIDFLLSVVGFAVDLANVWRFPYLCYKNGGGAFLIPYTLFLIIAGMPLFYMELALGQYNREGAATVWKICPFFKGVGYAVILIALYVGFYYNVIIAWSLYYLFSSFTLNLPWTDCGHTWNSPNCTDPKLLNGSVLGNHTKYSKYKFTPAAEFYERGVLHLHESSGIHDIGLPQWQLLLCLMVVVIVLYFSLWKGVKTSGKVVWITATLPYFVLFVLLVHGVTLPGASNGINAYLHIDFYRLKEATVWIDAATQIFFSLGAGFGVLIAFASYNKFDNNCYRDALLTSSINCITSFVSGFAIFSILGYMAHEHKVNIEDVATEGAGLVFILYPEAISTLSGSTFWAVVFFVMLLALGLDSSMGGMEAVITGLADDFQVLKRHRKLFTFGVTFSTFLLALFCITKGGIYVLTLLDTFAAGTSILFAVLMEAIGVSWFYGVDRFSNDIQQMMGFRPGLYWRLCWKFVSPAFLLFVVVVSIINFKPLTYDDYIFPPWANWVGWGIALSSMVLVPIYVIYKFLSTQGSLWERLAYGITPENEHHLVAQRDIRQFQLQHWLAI
# PROCEDURE_SUMMARY: Norepinephrine reuptake inhibition in transporter-transfected HEK-293 cells ([3H]-NE)
# Type: cell-based
# STUDY_CONDITIONS: concentration at which Ratio % is 50%; 6 concentrations 1 nM to 1 μM; read-out: Triple reuptake inhibition (IC50, μM) NET
PROPERTY_NAME: IC50 (µM)

COc1cc2cc(C(=O)NCCN3CCC(Cc4ccccc4)CC3)[nH]c2cc1OC [Example 35]	0.386
O=C(NCCN1CCC(Cc2ccc(Cl)c(Cl)c2)CC1)c1cc(Cl)cc(Cl)c1 [Example 10]	14.3
